SYSTEM_TESTED: UniProt:P09871
Sequence (P09871 438-688 limits assumed): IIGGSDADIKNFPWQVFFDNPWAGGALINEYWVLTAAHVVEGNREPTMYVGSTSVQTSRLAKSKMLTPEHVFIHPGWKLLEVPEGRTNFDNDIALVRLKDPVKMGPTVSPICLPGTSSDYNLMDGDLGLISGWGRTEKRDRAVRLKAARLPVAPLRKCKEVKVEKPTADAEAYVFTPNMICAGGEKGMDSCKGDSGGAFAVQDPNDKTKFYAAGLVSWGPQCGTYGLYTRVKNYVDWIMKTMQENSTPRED
Sequence (P09871 16-437 partner limits assumed): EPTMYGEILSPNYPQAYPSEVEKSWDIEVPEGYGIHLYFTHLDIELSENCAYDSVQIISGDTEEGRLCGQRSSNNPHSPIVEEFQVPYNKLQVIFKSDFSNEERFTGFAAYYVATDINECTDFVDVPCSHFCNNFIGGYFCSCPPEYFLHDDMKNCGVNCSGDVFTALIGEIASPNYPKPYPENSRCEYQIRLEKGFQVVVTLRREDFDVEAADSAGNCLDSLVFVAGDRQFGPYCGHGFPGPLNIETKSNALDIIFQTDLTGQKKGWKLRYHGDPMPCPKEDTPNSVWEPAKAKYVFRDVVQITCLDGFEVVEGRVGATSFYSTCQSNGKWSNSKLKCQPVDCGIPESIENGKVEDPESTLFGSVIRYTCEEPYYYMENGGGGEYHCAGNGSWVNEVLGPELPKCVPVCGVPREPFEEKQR
PROTOCOL_SUMMARY: Human C1s enzyme assay
Format: biochemical
CONDITION_CONTEXT: human complement C1s enzyme 1.16 nM, substrate Z-L-Lys-SBzl 100 μM, 5 min preincubation; read-out: IC50 (Stars), C1s Inhibiting Activity
// values below are reported IC50

Example cases with answers are listed next.
> print(dat)
                           smiles.structure   system.tested     result
1  O=C(NCC(=O)N1C[C@H](OC(F)F)C[C@H]1C(=O)N[C@H](CO)c1cc2cnccc2[nH]1)c1ccc2c(c1)Oc1ccccc1S2  UniProt:P09871   < 100 nM
2  O=C(NCC(=O)N1CC2(C[C@H]1C(=O)NCc1cc3ccncn3c1)OCCO2)c1ccc2c(c1)Oc1ccccc1S2  UniProt:P09871  > 1000 nM

Ask: Which measured IC50 value corresponds to CO[C@@H]1C[C@@H](C(=O)N[C@H](C)c2cc3cnccc3[nH]2)N(C(=O)CNC(=O)c2ccc3c(c2)Oc2ccccc2S3)C1 ?
Reply: < 100 nM

Ask: Which measured IC50 value corresponds to C[C@@H](NC(=O)[C@@H]1CC2(CN1C(=O)CNC(=O)c1ccc3c(c1)Oc1ccccc1S3)OCCO2)c1cc2cnccc2s1 ?
Reply: < 100 nM

Ask: Which measured IC50 value corresponds to C[C@@H](NC(=O)[C@@H]1C[C@@H](OC(F)F)CN1C(=O)CNC(=O)c1ccc2c(c1)-c1ccccc1C2(F)F)c1cc2cnccc2[nH]1 ?
Reply: < 100 nM

Ask: Which measured IC50 value corresponds to Cc1cc(Oc2ccc(C)cc2F)cc(C(=O)NCC(=O)N2C[C@H](OC(F)F)C[C@H]2C(=O)NCc2cc3cnccc3[nH]2)c1 ?
Reply: < 100 nM

Ask: Which measured IC50 value corresponds to C[C@@]12C[C@@H]1N(C(=O)CNC(=O)CCCOc1ccccc1)[C@H](C(=O)NCc1ccc3c(c1)CNC3)C2 ?
Reply: 100 to 1000 nM

Ask: Which measured IC50 value corresponds to CC(C)c1ccc(Oc2cccc(C(=O)NCC(=O)N3C[C@H](OC(F)F)C[C@H]3C(=O)NCc3cc4cnccc4[nH]3)c2)cc1 ?
Reply: < 100 nM

Ask: Which measured IC50 value corresponds to Cc1ccc(-c2ccc(C(=O)NCC(=O)N3CC4(C[C@H]3C(=O)NCc3cc5cnccc5[nH]3)OCCO4)cc2)s1 ?
Reply: < 100 nM

Ask: Which measured IC50 value corresponds to Cc1ccc(-c2ccc3c(c2)CN(CC(=O)N2C[C@H](OC(F)F)C[C@H]2C(=O)N[C@H](C)c2cc4cnccc4[nH]2)C3=O)c(C)c1 ?
Reply: < 100 nM

Ask: Which measured IC50 value corresponds to Cc1nccc2[nH]c(CNC(=O)[C@@H]3C[C@]4(C)C[C@@H]4N3C(=O)CNC(=O)c3ccc4c(c3)Oc3ccccc3S4)cc12 ?
Reply: > 1000 nM

Ask: Which measured IC50 value corresponds to O=C(NCC(=O)N1CC2(C[C@H]1C(=O)NCc1cc3cnccc3[nH]1)OCCO2)c1ccc(-c2ccc(F)cc2F)cc1 ?
Reply: 100 to 1000 nM

Ask: Which measured IC50 value corresponds to O=C(NCC(=O)N1C[C@H](OC(F)F)C[C@H]1C(=O)NCc1cc2cnccc2[nH]1)c1cccc(Oc2ccccc2)c1 ?
Reply: < 100 nM
